Data provenance is ChEMBL document CHEMBL3351566.

# method summary: Plasma concentration in Plasmodium berghei infected mouse at 50 mg/kg, po dosed once daily for 4 days on 4, 24, 48 and 72 hrs post infection and measured 1 hr post dose by HPLC-MS/MS method
# Format: ADME, organism-based
# Parameters: dose 50 mg/kg, route oral
attribute measured: concentration at 1 h

{"columns": ["molecule", "concentration at 1 h"],
 "data": [
  ["N/C(CC(O)c1cccc2ccccc12)=N\\N=C\\c1ccc(F)cc1 (configuration not stated)", "316 ng/mL"]
]}

# next molecule below
Query string: GET /values?readout=concentration at 1 h&item= N/C(CC(O)c1cc2ccccc2c2ccccc12)=N\N=C\c1ccc(F)cc1 (configuration not stated)
Result string: 4690 ng/mL

----------
concentration at 4 h by entry:
# method summary: Plasma concentration in Plasmodium berghei infected mouse at 50 mg/kg, po dosed once daily for 4 days on 4, 24, 48 and 72 hrs post infection and measured 4 hrs post dose by HPLC-MS/MS method
# Type: ADME, organism-based
# Parameters: dose 50 mg/kg, route oral
Reply numerically in ng/mL, unit not repeated.

{"columns": ["molecule", "readout units", "concentration at 4 h"],
 "data": [
  ["N/C(CC(O)c1cc2ccccc2c2ccccc12)=N\\N=C\\c1ccc(F)cc1 (configuration not stated)", "ng/mL", 3100]
]}

# next molecule below
Query string: GET /values?readout=concentration at 4 h&item= N/C(CC(O)c1cccc2ccccc12)=N\N=C\c1ccc(F)cc1 (configuration not stated)
Result string: 145

----------
# method summary: Selectivity index, ratio of IC50 for rat L6 cells to IC50 for Plasmodium falciparum 3D7 asexual blood stages
# Format: toxicity, cell-based
# measurement conditions: read-out: Ratio IC50
attribute measured: selectivity ratio

Below, each entry is followed by its recorded selectivity ratio result.
{"columns": ["molecule", "selectivity ratio"],
 "data": [
  ["COc1ccc(/C=N/N=C(\\N)CC(O)c2cccc3ccccc23)cc1 (centres undefined)", 76],
  ["C/C(=N\\N=C(/N)CC(O)c1cccc2ccccc12)c1ccc(F)cc1 (centres undefined)", 86]
]}

Query string: GET /values?readout=selectivity ratio&item= COc1ccc(/C=N/N=C(\N)CC(O)c2ccc3ccccc3c2)cc1 (centres undefined)
Result string: 182

Query string: Another molecule to check: N/C(CC(O)c1cccc2ccccc12)=N\N=C\c1ccc(F)cc1F (centres undefined)
Result string: 22

Query string: Another molecule to check: N/C(CC(O)c1ccc2ccccc2c1)=N\N=C\c1ccc(F)cc1 (centres undefined)
Result string: > 149

Query string: Another molecule to check: N/C(CC(O)c1cccc2ccccc12)=N\N=C\c1ccc(F)cc1 (centres undefined)
Result string: 321

Query string: Another molecule to check: CCC/C(=N\N=C(/N)CC(O)c1cccc2ccccc12)c1ccccc1 (centres undefined)
Result string: 120

Query string: Another molecule to check: N/C(CC(O)c1cccc2ccccc12)=N\N=C\c1ccc(C(F)(F)F)cc1 (centres undefined)
Result string: 234

Query string: Another molecule to check: N/C(CC(O)c1ccc2ccccc2c1)=N\N=C\c1ccc(Cl)c(Cl)c1 (centres undefined)
Result string: 52

Query string: Another molecule to check: CCOc1cc(/C=N/N=C(\N)CC(O)c2ccc3ccccc3c2)ccc1O (centres undefined)
Result string: 71

Query string: Another molecule to check: N/C(CC(O)c1cccc2ccccc12)=N\N=C\c1ccc(F)c(F)c1 (centres undefined)
Result string: 95
